protocolNotes: Tissue distribution assay in mice
Type: in vivo, mouse
condition: male, mouse, plasma; NVSG mice, oral 30 mg/kg, 4 h after administration; read-out: Concentration of compound in plasma
assayEndpoint: concentration at 4 h (ng/mL)
Could you give me the number in ng/mL? Just the number is fine.

What value of concentration at 4 h has been recorded for this entry: COc1ccc(CN2C3CC2CN(c2ccc(-c4cc(OCC(C)(C)O)cn5ncc(C#N)c45)cn2)C3)cn1 [Selpercatinib, selpercatinib, reference compound] 14600

###

targetOrSystem: UniProt P35968
Sequence (P35968 20-1356): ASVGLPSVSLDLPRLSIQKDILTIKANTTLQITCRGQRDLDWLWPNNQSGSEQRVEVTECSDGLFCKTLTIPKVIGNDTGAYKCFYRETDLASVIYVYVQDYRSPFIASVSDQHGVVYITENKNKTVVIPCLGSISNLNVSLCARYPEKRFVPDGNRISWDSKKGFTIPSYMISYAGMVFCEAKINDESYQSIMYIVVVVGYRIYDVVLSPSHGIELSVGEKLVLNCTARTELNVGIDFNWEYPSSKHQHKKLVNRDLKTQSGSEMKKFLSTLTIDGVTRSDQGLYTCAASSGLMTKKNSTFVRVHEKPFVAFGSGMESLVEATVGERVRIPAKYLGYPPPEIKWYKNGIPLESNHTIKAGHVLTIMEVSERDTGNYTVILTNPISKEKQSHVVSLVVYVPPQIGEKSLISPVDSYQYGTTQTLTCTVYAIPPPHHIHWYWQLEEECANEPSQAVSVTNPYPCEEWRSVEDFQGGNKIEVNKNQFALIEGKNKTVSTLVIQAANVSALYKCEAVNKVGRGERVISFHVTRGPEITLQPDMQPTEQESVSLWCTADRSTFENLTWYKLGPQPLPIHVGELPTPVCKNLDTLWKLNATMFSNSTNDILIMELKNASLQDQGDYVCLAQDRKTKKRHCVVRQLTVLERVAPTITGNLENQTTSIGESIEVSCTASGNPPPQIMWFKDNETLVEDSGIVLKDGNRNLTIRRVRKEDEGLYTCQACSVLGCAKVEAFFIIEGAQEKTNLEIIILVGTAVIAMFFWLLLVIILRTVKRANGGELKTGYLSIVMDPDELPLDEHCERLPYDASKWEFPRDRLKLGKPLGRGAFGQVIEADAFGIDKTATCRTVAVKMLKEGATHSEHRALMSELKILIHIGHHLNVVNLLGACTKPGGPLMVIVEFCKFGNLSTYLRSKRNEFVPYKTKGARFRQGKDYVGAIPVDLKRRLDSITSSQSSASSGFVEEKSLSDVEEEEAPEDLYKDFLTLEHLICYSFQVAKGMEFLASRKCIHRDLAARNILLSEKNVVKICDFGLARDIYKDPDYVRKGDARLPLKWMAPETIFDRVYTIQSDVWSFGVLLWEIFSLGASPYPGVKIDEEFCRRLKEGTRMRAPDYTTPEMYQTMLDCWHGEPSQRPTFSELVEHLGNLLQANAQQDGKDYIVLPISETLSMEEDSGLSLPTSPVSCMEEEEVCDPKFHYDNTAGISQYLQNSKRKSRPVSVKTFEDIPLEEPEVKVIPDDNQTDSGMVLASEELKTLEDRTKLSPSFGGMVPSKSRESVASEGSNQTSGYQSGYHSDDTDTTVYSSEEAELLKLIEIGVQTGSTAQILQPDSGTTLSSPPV
pIC50: −log10 of the molar value.
Criterion: pIC50 meeting or surpassing 7. Met: Yes. Not met: No.

Solved cases (5 shown):
molecule	group
COc1ccc(CN2C3CC2CN(c2ccc(-c4cc(N5CCC(C)(O)C5)cn5ncc(C#N)c45)cn2)C3)cn1 (stereo not drawn)	Yes
COc1ccc(CN2C3CC2CN(c2ccc(-c4cc(-c5cnn6c5CCC6)cn5ncc(C#N)c45)cn2)C3)cn1	Yes
COc1ccc(CN2CCCN(c3ccc(-c4cc(-c5cnn(C)c5)cn5ncc(C#N)c45)cn3)CC2)cn1	Yes
[2H]C([2H])([2H])N1CCN(c2cc(-c3ccc(N4CC5CC(C4)N5Cc4ccc(OC)nc4)nc3)c3c(C#N)cnn3c2)CC1	No
COc1ccc(CN2C3CC2CN(c2ccc(-c4cc(N5CCC(OC)C5)cn5ncc(C#N)c45)cn2)C3)cn1 (stereo not drawn)	Yes

Can [2H]C([2H])([2H])[N+]1([O-])CCN(c2cc(-c3ccc(N4CC5CC(C4)N5Cc4ccc(OC)nc4)nc3)c3c(C#N)cnn3c2)CC1 be said to have pIC50 at or above 7? No

Could you do the same for COc1ccc(CN2C3CC2CN(c2ccc(-c4cc(N5CCC(O)C5)cn5ncc(C#N)c45)cn2)C3)cn1 (stereo not drawn) , please? Yes

###

targetOrSystem: RET (M918T) (Homo sapiens (Human), UniProt P07949, M918T)
Sequence (P07949 29-1114 M918T): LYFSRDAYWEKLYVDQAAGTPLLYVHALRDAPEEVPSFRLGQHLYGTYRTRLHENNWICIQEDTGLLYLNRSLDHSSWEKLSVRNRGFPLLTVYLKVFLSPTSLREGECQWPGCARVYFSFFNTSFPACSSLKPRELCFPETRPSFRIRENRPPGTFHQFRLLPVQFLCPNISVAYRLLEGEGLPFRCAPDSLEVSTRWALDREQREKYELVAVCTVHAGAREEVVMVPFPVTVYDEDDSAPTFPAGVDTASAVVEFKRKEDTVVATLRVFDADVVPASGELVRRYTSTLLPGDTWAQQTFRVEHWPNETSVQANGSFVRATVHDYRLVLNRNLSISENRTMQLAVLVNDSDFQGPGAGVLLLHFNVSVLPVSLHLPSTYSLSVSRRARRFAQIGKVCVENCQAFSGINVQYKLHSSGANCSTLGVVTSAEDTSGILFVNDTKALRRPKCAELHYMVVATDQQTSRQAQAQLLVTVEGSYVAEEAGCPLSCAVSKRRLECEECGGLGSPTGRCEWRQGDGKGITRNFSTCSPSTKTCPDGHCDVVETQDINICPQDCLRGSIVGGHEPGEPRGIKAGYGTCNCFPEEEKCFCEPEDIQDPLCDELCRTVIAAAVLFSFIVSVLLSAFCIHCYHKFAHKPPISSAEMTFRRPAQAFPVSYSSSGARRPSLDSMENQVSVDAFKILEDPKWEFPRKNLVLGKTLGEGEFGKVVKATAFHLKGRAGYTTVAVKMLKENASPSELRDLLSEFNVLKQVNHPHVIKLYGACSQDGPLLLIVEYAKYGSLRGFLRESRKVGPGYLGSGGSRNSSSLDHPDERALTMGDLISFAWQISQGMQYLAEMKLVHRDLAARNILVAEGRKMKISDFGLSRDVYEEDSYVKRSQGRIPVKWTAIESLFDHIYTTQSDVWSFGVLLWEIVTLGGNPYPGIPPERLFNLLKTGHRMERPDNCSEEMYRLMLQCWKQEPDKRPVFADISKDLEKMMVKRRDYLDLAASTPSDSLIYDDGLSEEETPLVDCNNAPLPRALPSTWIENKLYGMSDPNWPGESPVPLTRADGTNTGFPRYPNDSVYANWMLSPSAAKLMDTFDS
protocolNotes: HTRF kinase activity assay, RET (M918T)
condition: 10 μM ATP
pIC50 listing for selected compounds.
// pIC50 here means minus log10 of the molar concentration (mol/L)

Here is how some compounds turned out for pIC50.
compound	pIC50
COc1ccc(CN2C3CC2CN(c2ccc(-c4cc(N5CCOCC5=O)cn5ncc(C#N)c45)cn2)C3)cn1	7.65
COc1ccc(CN2CCC(Nc3ccc(-c4cc(-c5cnn(C)c5)cn5ncc(C#N)c45)cn3)CC2)cn1	7.10
COc1ccc(CN2C3CC2CN(c2ccc(-c4cc(C#CC(C)(C)O)cn5ncc(C#N)c45)cn2)C3)cn1	8.69
COc1ccc(CN2C3CC2CN(c2ccc(-c4cc(-c5cnn6c5CCC6)cn5ncc(C#N)c45)cn2)C3)cn1	8.41
COc1ccc(CN2CCCN(c3ccc(-c4cc(-c5cnn(C)c5)cn5ncc(C#N)c45)cn3)CC2)cn1	8.76

Turning now to a further compound:
What value of pIC50 has been recorded for this entry: COc1ccc(CN(C)C2CCCCC2N(C)c2ccc(-c3cc(-c4cnn(C)c4)cn4ncc(C#N)c34)cn2)cn1 (stereo not drawn) 7.01

###

protocolNotes: Pharmacokinetic assay in rats
Format: in vivo, rat
condition: rat, plasma, po; SD male rats, p.o. 5 mg/kg
Cmax listing for selected compounds.
Could you give me the number in ng/mL? Just the number is fine.

compound	assayEndpoint	experimentalResult
COc1ccc(CN2C3CC2CN(c2ccc(-c4cc(OCC(C)(C)O)cn5ncc(C#N)c45)cn2)C3)cn1 [Selpercatinib, selpercatinib, reference compound]	Cmax	1040

Turning now to a further compound:
What value of Cmax has been recorded for this entry: [2H]C([2H])([2H])N1CCN(c2cc(-c3ccc(N4CC5CC(C4)N5Cc4ccc(OC)nc4)nc3)c3c(C#N)cnn3c2)CC1 63.9

###

protocolNotes: Metabolic stability in human liver microsomes
condition: T1/2 (min), human liver microsomes, NADPH, Table 3
assayEndpoint: half-life at 1 µM (min)
Could you give me the number in min? Just the number is fine.

Here is how some compounds turned out for half-life at 1 µM.
compound	assayEndpoint	experimentalResult
COc1ccc(CN2C3CC2CN(c2ccc(-c4cc(-c5cc6n(n5)CCC6)cn5ncc(C#N)c45)cn2)C3)cn1	half-life at 1 µM	19.9
COc1ccc(CN2C3CC2CN(c2ccc(-c4cc(N5CCOCC5)cn5ncc(C#N)c45)cn2)C3)cn1	half-life at 1 µM	30.9
COc1ccc(CN2C3CC2CN(c2ccc(-c4cc(OCC(C)(C)O)cn5ncc(C#N)c45)cn2)C3)cn1 [Selpercatinib, selpercatinib, reference compound]	half-life at 1 µM	22.9
COc1ccc(CN2C3CC2CN(c2ccc(-c4cc(N5CCC(C)(O)C5)cn5ncc(C#N)c45)cn2)C3)cn1 (stereo not drawn)	half-life at 1 µM	27.4
[2H]C([2H])([2H])N1CCN(c2cc(-c3ccc(N4CC5CC(C4)N5Cc4ccc(OC)nc4)nc3)c3c(C#N)cnn3c2)CC1	half-life at 1 µM	33.6

Turning now to a further compound:
What value of half-life at 1 µM has been recorded for this entry: COc1ccc(CN2C3CC2CN(c2ccc(-c4cc(N5CCN(C)CC5)cn5ncc(C#N)c45)cn2)C3)cn1 38.7

###

pIC50 listing for selected compounds.
targetOrSystem: RET (M918T) (Homo sapiens (Human), UniProt P07949, M918T)
protocolNotes: HTRF kinase activity assay, RET (M918T)
condition: 10 μM ATP
// pIC50 here means minus log10 of the molar concentration (mol/L)

Here is how some compounds turned out for pIC50.
compound	targetOrSystem	pIC50
COc1ccc(CN2C3CC2CN(c2ccc(-c4cc(N5CCC(C)(O)C5)cn5ncc(C#N)c45)cn2)C3)cn1 (stereo not shown)	RET (M918T) (Homo sapiens (Human), UniProt P07949, M918T)	8.79
COc1ccc(CN2C3CC2CN(c2ccc(-c4cc(N5CCC(OC)C5)cn5ncc(C#N)c45)cn2)C3)cn1 (stereo not shown)	RET (M918T) (Homo sapiens (Human), UniProt P07949, M918T)	8.07
COc1ccc(CN2CCN(c3ccc(-c4cc(-c5cc6n(n5)CCC6)cn5ncc(C#N)c45)cn3)CC2)cn1	RET (M918T) (Homo sapiens (Human), UniProt P07949, M918T)	8.02

Turning now to a further compound:
What value of pIC50 has been recorded for this entry: COc1ccc(CN2C3CC2CN(c2ccc(-c4cc(N5CCC(O)C5)cn5ncc(C#N)c45)cn2)C3)cn1 (stereo not shown) 9.12

###

protocolNotes: in vitro
condition: human, microsomes, CLint (μL/min/mg)
assayEndpoint: microsomal CLint at 1 µM (µL/min/mg)
Could you give me the number in µL/min/mg? Just the number is fine.

Here is how some compounds turned out for microsomal CLint at 1 µM.
compoundStructure	microsomal CLint at 1 µM, µL/min/mg
COc1ccc(CN2C3CC2CN(c2ccc(-c4cc(N5CC6CC(C5)N6)cn5ncc(C#N)c45)cn2)C3)cn1	8.8
COc1ccc(CN2C3CC2CN(c2ccc(-c4cc(N5CC6CC(C5)N6C)cn5ncc(C#N)c45)cn2)C3)cn1	36.4

What value of microsomal CLint at 1 µM has been recorded for this entry: COc1ccc(CN2C3CC2CN(c2ccc(-c4cc(-c5cc6n(n5)CCC6)cn5ncc(C#N)c45)cn2)C3)cn1 69.8

###

targetOrSystem: RET (V804M) (Homo sapiens (Human), UniProt P07949, V804M)
Sequence (P07949 29-1114 V804M): as the sequence (P07949 29-1114 M918T) above, with V776M, T890M counted along it
protocolNotes: HTRF kinase activity assay, RET (V804M)
condition: 10 μM ATP
IC50 listing for selected compounds.
Could you give me the number in nM? Just the number is fine.

Here is how some compounds turned out for IC50.
compound	IC50 / nM
COc1ccc(CN(C)C2CCCCC2N(C)c2ccc(-c3cc(-c4cnn(C)c4)cn4ncc(C#N)c34)cn2)cn1 (stereo not shown) [Compound 34]	210
COc1ccc(CN2C3CC2CN(c2ccc(-c4cc(-c5cnn6c5CCC6)cn5ncc(C#N)c45)cn2)C3)cn1 [Compound 51]	7.16

What value of IC50 has been recorded for this entry: COc1ccc(CN2C3CC2CN(c2ccc(-c4cc(N5CCC(OC)C5)cn5ncc(C#N)c45)cn2)C3)cn1 (stereo not shown) [Compound 68] 5.37

Could you do the same for COc1ccc(CN2CCCN(c3ccc(-c4cc(-c5cnn(C)c5)cn5ncc(C#N)c45)cn3)CC2)cn1 [Compound 32] , please? 4.8

Could you do the same for COc1ccc(CN2C3CC2CN(c2ccc(-c4cc(C#CC(C)(C)O)cn5ncc(C#N)c45)cn2)C3)cn1 [Compound 66] , please? 7.69

Could you do the same for COc1ccc(CN2CCC(Nc3ccc(-c4cc(-c5cnn(C)c5)cn5ncc(C#N)c45)cn3)CC2)cn1 [Compound 21] , please? 188

Could you do the same for COc1ccc(CN2C3CC2CN(c2ccc(-c4cc(N5CCC(C)(O)C5)cn5ncc(C#N)c45)cn2)C3)cn1 (stereo not shown) [Compound 70] , please? 1.01
